# SYSTEM_TESTED: GST-Syk Full Protein (human) (Homo sapiens, UniProt P43405)
# ASSAY_METHOD_TEXT: Syk kinase inhibition test (HTRF method)
# Type: biochemical
# RUN_PARAMETERS: Tables 2-x, thiophene compounds B; read-out: sykHTRK ave IC50
REPORTED_METRIC: IC50

[[record]]
compound = "CC(=O)c1ccc(-c2cccc(N(C)c3cc(C)ccn3)n2)s1 [Compound B-90]"
system_tested = "GST-Syk Full Protein (human) (Homo sapiens, UniProt P43405)"
value_measured = "> 1000 nM"

[[record]]
compound = "CC(=O)c1ccc(-c2cccc(Nc3cc(N(C)C)ncn3)n2)s1 [Compound B-26]"
system_tested = "GST-Syk Full Protein (human) (Homo sapiens, UniProt P43405)"
value_measured = "100 to 1000 nM"

[[record]]
compound = "CC(=O)c1cc(C)c(-c2cccc(Nc3cc(C)ccn3)n2)s1 [Compound B-6]"
system_tested = "GST-Syk Full Protein (human) (Homo sapiens, UniProt P43405)"
value_measured = "100 to 1000 nM"

[[record]]
compound = "COC(=O)c1cc(Br)nc(Nc2cccc(-c3ccc(C(C)=O)s3)n2)c1 [Compound B-44]"
system_tested = "GST-Syk Full Protein (human) (Homo sapiens, UniProt P43405)"
value_measured = "> 1000 nM"

[[record]]
compound = "Cc1ccnc(Nc2cccc(-c3ccc(C(=O)NC[C@H]4CC[C@H](C(=O)O)CC4)s3)n2)c1 [Compound B-111]"
system_tested = "GST-Syk Full Protein (human) (Homo sapiens, UniProt P43405)"
value_measured = "100 to 1000 nM"

[[record]]
compound = "Cc1ccnc(Nc2cccc(-c3ccc(-c4nnn[nH]4)s3)n2)c1 [Compound B-95]"
system_tested = "GST-Syk Full Protein (human) (Homo sapiens, UniProt P43405)"
value_measured = "100 to 1000 nM"

[[record]]
compound = "Cc1ccnc(Nc2cccc(-c3ccc(C(=O)N4CCNCC4)s3)n2)c1 [Compound B-84]"
system_tested = "GST-Syk Full Protein (human) (Homo sapiens, UniProt P43405)"
value_measured = "< 100 nM"

[[record]]
compound = "CNC(=O)c1cc(C)c(-c2cccc(Nc3cc(C)ccn3)n2)s1 [Compound B-9]"
system_tested = "GST-Syk Full Protein (human) (Homo sapiens, UniProt P43405)"
value_measured = "100 to 1000 nM"

[[record]]
compound = "CC(=O)c1ccnc(Nc2cccc(-c3ccc(C(C)=O)s3)n2)c1 [Compound B-83]"
system_tested = "GST-Syk Full Protein (human) (Homo sapiens, UniProt P43405)"
value_measured = "100 to 1000 nM"

[[record]]
compound = "CC(=O)c1ccc(-c2cccc(Nc3cc(C4(C)OCCO4)ccn3)n2)s1 [Compound B-78]"
system_tested = "GST-Syk Full Protein (human) (Homo sapiens, UniProt P43405)"
value_measured = "100 to 1000 nM"

[[record]]
compound = "Cc1ccnc(Nc2cccc(-c3ccc(C(=O)N4CCOCC4)s3)n2)c1 [Compound B-81]"
system_tested = "GST-Syk Full Protein (human) (Homo sapiens, UniProt P43405)"
value_measured = "100 to 1000 nM"

[[record]]
compound = "Cc1ccnc(Nc2cccc(-c3ccc(C(=O)NCC(O)CO)s3)n2)c1 (centres unmarked) [Compound B-102]"
system_tested = "GST-Syk Full Protein (human) (Homo sapiens, UniProt P43405)"
value_measured = "100 to 1000 nM"

[[record]]
compound = "Cc1ccnc(Nc2cccc(-c3ccc(C(=O)NCc4ccc(C(=O)O)cc4)s3)n2)c1 [Compound B-112]"
system_tested = "GST-Syk Full Protein (human) (Homo sapiens, UniProt P43405)"
value_measured = "100 to 1000 nM"

[[record]]
compound = "CC(=O)O/N=C(\\C)c1ccc(-c2cccc(Nc3cc(C)ccn3)n2)s1 [Compound B-86]"
system_tested = "GST-Syk Full Protein (human) (Homo sapiens, UniProt P43405)"
value_measured = "100 to 1000 nM"

[[record]]
compound = "Cc1ccnc(Nc2cccc(-c3ccc(C(C)OCc4ccc(C(=O)O)cc4)s3)n2)c1 (centres unmarked) [Compound B-108]"
system_tested = "GST-Syk Full Protein (human) (Homo sapiens, UniProt P43405)"
value_measured = "100 to 1000 nM"

[[record]]
compound = "CCC(=NO)c1ccc(-c2cccc(Nc3cc(C)ccn3)n2)s1 [Compound B-51]"
system_tested = "GST-Syk Full Protein (human) (Homo sapiens, UniProt P43405)"
value_measured = "< 100 nM"

[[record]]
compound = "Cc1ccnc(Nc2cccc(-c3ccc(C(O)C(F)(F)C(=O)O)s3)n2)c1 (centres unmarked) [Compound B-109]"
system_tested = "GST-Syk Full Protein (human) (Homo sapiens, UniProt P43405)"
value_measured = "< 100 nM"

